- SYSTEM: GlcA(b1-3)Gal
- RUN DESCRIPTION: glycan array binding signal (z-score within array); higher = stronger binding
- RUN CONDITIONS: glycan notation: IUPAC condensed, linker removed
The full list was thinned out, with the strongest signals kept by preference.
The following ranges of glycan array binding signal (z-score) define the classes used here: bottom end = under -0.2, midrange = from -0.2 up to 1, top end = 1 and over

[
  {
    "BINDER": "Gal 8 (Homo sapiens), O00214_1 (protein) MMLSLNNLQNIIYNPVIPFVGTIPDQLDPGTLIVIRGHVPSDADRFQVDLQNGSSMKPRADVAFHFNPRFKRAGCIVCNTLINEKWGREEITYDTPFKREKSFEIVIMVLKDKFQVAVNGKHTLLYGHRIGPEKIDTLGIYGKVNIHSIGFSFSSDLQSTQASSLELTEISRENVPKSGTPQLRLPFAARLNTPMGPGRTVVVKGEVNANAKSFNVDLLAGKSKDIALHLNPRLNIKAFVRNSFLQESWGEEERNITSFPFSPGMYFEMIIYCDVREFKVAVNGVHSLEYKHRFKELSSIDTLEINGDIHLLEVRSW",
    "GROUP LABEL": "bottom end"
  }
]

Lab note: which band did Intelectin-1a (Mus musculus) (protein) AEWSHPQFEKAEENLDTNRWGNSFFSSLPRSCKEIKQEHTKAQDGLYFLRTKNGVIYQTFCDMTTAGGGWTLVASVHENNMRGKCTVGDRWSSQQGNRADYPEGDGNWANYNTFGSAEAATSDDYKNPGYFDIQAENLGIWHVPNKSPLHNWRKSSLLRYRTFTGFLQHLGHNLFGLYKKYPVKYGEGKCWTDNGPALPVVYDFGDARKTASYYSPSGQREFTAGYVQFRVFNNERAASALCAGVRVTGCNTEHHCIGGGGFFPEGNPVQCGDFASFDWDGYGTHNGYSSSRKITEAAVLLFYR land in?
midrange
